# Tested on: KRAS G12D mutant-positive pancreatic cancer line AsPC-1
# EXPERIMENT: Non-anchorage-dependent cell growth inhibitory activity in AsPC-1 (spheroid 3D culture)
# Type: cell-based
# CONDITION_INFO: Homo sapiens, ASPC1, 144 h, read-out: IC50, non-anchorage-dependent cell growth inhibition
IC50 strictly under 200 nM means class 1; at 200 nM or over means class 0.

| MOLECULAR_STRING | ASSAYED_SYSTEM | QUALITATIVE_LABEL |
| --- | --- | --- |
| Cc1c(F)cc2[nH]ncc2c1-c1c(C2CC2)cc2c(N3C[C@@H]4C[C@H]3CN4)nc(OCc3cccnc3C(C)C)nc2c1OCc1ccc(Cn2c(=O)n(C)c3ncccc32)cc1 | KRAS G12D mutant-positive pancreatic cancer line AsPC-1 | class 1 |
| Cc1c(F)cc2[nH]ncc2c1-c1c(C2CC2)cc2c(N3C[C@@H]4C[C@H]3CN4)nc(OC3CCOCC3)nc2c1OCc1ccc(CN2CCN(C3CCOCC3)CC2=O)cc1 | KRAS G12D mutant-positive pancreatic cancer line AsPC-1 | class 1 |
| Cc1c(F)cc2[nH]ncc2c1-c1c(C2CC2)cc2c(N3C[C@@H]4C[C@H]3CN4)nc(OC3CCOCC3)nc2c1OCc1ccc(Cn2nc3n(c2=O)CCOC3)cc1 | KRAS G12D mutant-positive pancreatic cancer line AsPC-1 | class 1 |
| Cc1c(F)cc2[nH]ncc2c1-c1c(C2CC2)cc2c(N3C[C@@H]4C[C@H]3CN4)nc(OC3CCOCC3)nc2c1OCc1ccc(Cc2nnn(C)n2)cc1 | KRAS G12D mutant-positive pancreatic cancer line AsPC-1 | class 0 |
| Cc1c(F)cc2[nH]ncc2c1-c1c(C2CC2)cc2c(N3C[C@@H]4C[C@H]3CN4)nc(OC3CCOCC3)nc2c1OCc1ccc(CN2CCN(CC3CC3)CC2=O)cc1 | KRAS G12D mutant-positive pancreatic cancer line AsPC-1 | class 1 |

###

# Tested on: KRAS G12D mutant-positive pancreatic cancer line AsPC-1
# EXPERIMENT: Non-anchorage-dependent cell growth inhibitory activity in AsPC-1 (spheroid 3D culture)
# Assay type: cell-based
# CONDITION_INFO: Homo sapiens, ASPC1, 144 h, read-out: IC50, non-anchorage-dependent cell growth inhibition

| MOLECULAR_STRING | UNIT_ABBREVIATION | IC50 |
| --- | --- | --- |
| Cc1c(F)cc2[nH]ncc2c1-c1c(C2CC2)cc2c(N3C[C@@H]4C[C@H]3CN4)nc(O[C@@H]3CCCc4cnccc43)nc2c1OCc1ccc(Cn2c(=O)n(C)c3ncccc32)cc1 | µM | 0.073 |
| Cc1c(F)cc2[nH]ncc2c1-c1c(C2CC2)cc2c(N3C[C@@H]4C[C@H]3CN4)nc(OC3CCOCC3)nc2c1OCc1ccc(Cc2nc3n(n2)CCC3)cc1 | µM | 0.192 |
| Cc1c(F)cc2[nH]ncc2c1-c1c(C2CC2)cc2c(N3C[C@@H]4C[C@H]3CN4)nc(OC3CCOCC3)nc2c1OCc1ccc(CN2CCN(C(C)C)CC2=O)cc1 | µM | 0.092 |
| Cc1c(F)cc2[nH]ncc2c1-c1c(C2CC2)cc2c(N3C[C@@H]4C[C@H]3CN4)nc(OC3CCOCC3)nc2c1OCc1ccc(Cn2nc(-c3cnccn3)nc2C)cc1 | µM | 0.133 |
| CCc1nc(Cc2ccc(COc3c(-c4c(C)c(F)cc5[nH]ncc45)c(C4CC4)cc4c(N5C[C@@H]6C[C@H]5CN6)nc(OC5CCOCC5)nc34)cc2)nn1C | µM | 0.152 |
| Cc1c(F)cc2[nH]ncc2c1-c1c(C2CC2)cc2c(N3C[C@@H]4C[C@H]3CN4)nc(OC3CCOCC3)nc2c1OCc1ccc(Cc2ncn(C3CCOCC3)n2)cc1 | µM | 0.189 |
| CCN1CCN(Cc2ccc(COc3c(-c4c(C)c(F)cc5[nH]ncc45)c(C4CC4)cc4c(N5C[C@@H]6C[C@H]5CN6)nc(OC5CCOCC5)nc34)cc2)C(=O)C1 | µM | 0.099 |
| Cc1cc(C)n2cc(Cc3ccc(COc4c(-c5c(C)c(F)cc6[nH]ncc56)c(C5CC5)cc5c(N6C[C@@H]7C[C@H]6CN7)nc(OC6CCOCC6)nc45)cc3)nc2n1 | µM | 0.084 |
| Cc1c(F)cc2[nH]ncc2c1-c1c(C2CC2)cc2c(N3C[C@@H]4C[C@H]3CN4)nc(OC3CCOCC3)nc2c1OCc1ccc(Cc2nc3ncccn3n2)cc1 | µM | 0.13 |
| Cc1c(F)cc2[nH]ncc2c1-c1c(C2CC2)cc2c(N3C[C@@H]4C[C@H]3CN4)nc(OC3CCOCC3)nc2c1OCc1ccc(Cc2ncn(C3CC3)n2)cc1 | µM | 0.154 |
| Cc1c(F)cc2[nH]ncc2c1-c1c(C2CC2)cc2c(N3C[C@@H]4C[C@H]3CN4)nc(OC3CCOCC3)nc2c1OCc1ccc(Cc2cn3ccncc3n2)cc1 | µM | 0.138 |

###

# ASSAYED_SYSTEM: KRAS G12D/SOS/c-Raf complex (Homo sapiens (Human), UniProt P01116, G12D)
# Sequence (P01116 other isoform, or with tags, fused parts or gaps G12D): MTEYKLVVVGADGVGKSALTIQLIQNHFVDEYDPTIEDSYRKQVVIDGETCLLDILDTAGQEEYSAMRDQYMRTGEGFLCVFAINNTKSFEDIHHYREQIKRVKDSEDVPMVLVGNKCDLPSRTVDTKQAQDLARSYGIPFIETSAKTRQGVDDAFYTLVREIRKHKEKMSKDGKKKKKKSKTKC
# EXPERIMENT: KRAS G12D/SOS/c-Raf complex formation inhibitory activity (TR-FRET)
# CONDITION_INFO: human recombinant proteins, 1 hour at room temperature, read-out: IC50, KRAS G12D/SOS/c-Raf complex formation inhibition
EXPERIMENTAL_ENDPOINT: IC50 (nM)

| MOLECULAR_STRING | QUANTITATIVE_RESULT |
| --- | --- |
| CCc1nc(Cc2ccc(COc3c(-c4c(C)c(F)cc5[nH]ncc45)c(C4CC4)cc4c(N5C[C@@H]6C[C@H]5CN6)nc(OC5CCOCC5)nc34)cc2)nn1C | 88 |
| Cc1c(F)cc2[nH]ncc2c1-c1c(C2CC2)cc2c(N3C[C@@H]4C[C@H]3CN4)nc(OC3CCOCC3)nc2c1OCc1ccc(Cc2ncn(C3CCOCC3)n2)cc1 | 65 |
| Cc1c(F)cc2[nH]ncc2c1-c1c(C2CC2)cc2c(N3C[C@@H]4C[C@H]3CN4)nc(OC3CCOCC3)nc2c1OCc1ccc(Cc2nnn(C)n2)cc1 | 226 |
| Cc1c(F)cc2[nH]ncc2c1-c1c(C2CC2)cc2c(N3C[C@@H]4C[C@H]3CN4)nc(OC3CCOCC3)nc2c1OCc1ccc(Cc2ncn(C3COC3)n2)cc1 | 75 |
| Cc1c(F)cc2[nH]ncc2c1-c1c(C2CC2)cc2c(N3C[C@@H]4C[C@H]3CN4)nc(O[C@@H]3CCCc4cnccc43)nc2c1OCc1ccc(Cn2c(=O)n(C)c3ncccc32)cc1 | 40 |
| Cc1c(F)cc2[nH]ncc2c1-c1c(C2CC2)cc2c(N3C[C@@H]4C[C@H]3CN4)nc(OC3CCOCC3)nc2c1OCc1ccc(Cc2nc(C3CC3)n(C)n2)cc1 | 161 |
| Cc1cc(C)n2cc(Cc3ccc(COc4c(-c5c(C)c(F)cc6[nH]ncc56)c(C5CC5)cc5c(N6C[C@@H]7C[C@H]6CN7)nc(OC6CCOCC6)nc45)cc3)nc2n1 | 44 |
| Cc1c(F)cc2[nH]ncc2c1-c1c(C2CC2)cc2c(N3C[C@@H]4C[C@H]3CN4)nc(OC3CCOCC3)nc2c1OCc1ccc(Cc2nc3ncccn3n2)cc1 | 77 |
| Cc1c(F)cc2[nH]ncc2c1-c1c(C2CC2)cc2c(N3C[C@@H]4C[C@H]3CN4)nc(OC3CCOCC3)nc2c1OCc1ccc(Cc2nc3n(n2)CCC3)cc1 | 92 |
| Cc1c(F)cc2[nH]ncc2c1-c1c(C2CC2)cc2c(N3C[C@@H]4C[C@H]3CN4)nc(OC3CCOCC3)nc2c1OCc1ccc(Cn2nc(-c3cnccn3)nc2C)cc1 | 110 |
| Cc1c(F)cc2[nH]ncc2c1-c1c(C2CC2)cc2c(N3C[C@@H]4C[C@H]3CN4)nc(OC3CCOCC3)nc2c1OCc1ccc(CN2CCN(C3CCOCC3)CC2=O)cc1 | 107 |

###

# ASSAYED_SYSTEM: KRAS G12D/SOS/c-Raf complex (Homo sapiens (Human), UniProt P01116, G12D)
# EXPERIMENT: KRAS G12D/SOS/c-Raf complex formation inhibitory activity (TR-FRET)
# CONDITION_INFO: human recombinant proteins, 1 hour at room temperature, read-out: IC50, KRAS G12D/SOS/c-Raf complex formation inhibition
pIC50: −log10 of the molar value.

| MOLECULE | pIC50 |
| --- | --- |
| Cc1c(F)cc2[nH]ncc2c1-c1c(C2CC2)cc2c(N3C[C@@H]4C[C@H]3CN4)nc(OC3CCOCC3)nc2c1OCc1ccc(CN2C(=O)CN(C)c3ncccc32)cc1 | 7.17 |
| Cc1c(F)cc2[nH]ncc2c1-c1c(C2CC2)cc2c(N3C[C@@H]4C[C@H]3CN4)nc(OC3CCOCC3)nc2c1OCc1ccc(Cn2nc3n(c2=O)CCOC3)cc1 | 7.13 |
| Cc1c(F)cc2[nH]ncc2c1-c1c(C2CC2)cc2c(N3C[C@@H]4C[C@H]3CN4)nc(OC3CCOCC3)nc2c1OCc1ccc(Cc2ncn(C3CC3)n2)cc1 | 6.84 |
| Cc1c(F)cc2[nH]ncc2c1-c1c(C2CC2)cc2c(N3C[C@@H]4C[C@H]3CN4)nc(OC3CCOCC3)nc2c1OCc1ccc(Cc2cn3ccncc3n2)cc1 | 7.15 |
| Cc1c(F)cc2[nH]ncc2c1-c1c(C2CC2)cc2c(N3C[C@@H]4C[C@H]3CN4)nc(OCc3cccnc3C(C)C)nc2c1OCc1ccc(Cn2c(=O)n(C)c3ncccc32)cc1 | 7.48 |
| Cc1c(F)cc2[nH]ncc2c1-c1c(C2CC2)cc2c(N3C[C@@H]4C[C@H]3CN4)nc(OC3CCOCC3)nc2c1OCc1ccc(CN2CCN(CC3CC3)CC2=O)cc1 | 6.98 |
| CCN1CCN(Cc2ccc(COc3c(-c4c(C)c(F)cc5[nH]ncc45)c(C4CC4)cc4c(N5C[C@@H]6C[C@H]5CN6)nc(OC5CCOCC5)nc34)cc2)C(=O)C1 | 7.00 |
| Cc1c(F)cc2[nH]ncc2c1-c1c(C2CC2)cc2c(N3C[C@@H]4C[C@H]3CN4)nc(OC3CCOCC3)nc2c1OCc1ccc(CN2CCN(C)CC2=O)cc1 | 7.02 |
| Cc1c(F)cc2[nH]ncc2c1-c1c(C2CC2)cc2c(N3C[C@@H]4C[C@H]3CN4)nc(OC3CCOCC3)nc2c1OCc1ccc(Cn2c(=O)n(C)c3nccnc32)cc1 (single isomer, unassigned) | 7.36 |
| Cc1c(F)cc2[nH]ncc2c1-c1c(C2CC2)cc2c(N3C[C@@H]4C[C@H]3CN4)nc(OC3CCOCC3)nc2c1OCc1ccc(CN2CCN(C(C)C)CC2=O)cc1 | 7.04 |

Numbers sourced from patent US20240150366A1.
